System: U2OS
assayMethodText: Multiplex assay against U2OS
Format: toxicity, cell-based
testParameters: human, 12 h, 1 µM, compound concentration 1 uM, replicate 2
Some molecules, each annotated with its measured Population Healthy Nuclei (%).
Quick reminder: number only, in %, skip the unit.

Look over these answered cases.
molecule	Population Healthy Nuclei (%)
COc1cccc2c1c(NS(=O)(=O)c1ccc(Cl)s1)nn2Cc1cccc(CNC(=O)C(C)(C)O)c1	64
Cc1cccc(NC(=O)CN2CCC(c3ccccn3)CC2)c1.Cl.Cl	76
COc1ccccc1N1CCN(C[C@@H](C(=O)NC(C)(C)C)c2ccccc2)CC1.Cl.Cl	80
CN1CCN(c2cc(-c3ccccc3)nc(N)n2)CC1	76
CC(/C=C1\SC(=S)N(CCCC(=O)Nc2ccc(C(=O)O)c(O)c2)C1=O)=C\c1ccccc1	80
CCc1cc2cc(NS(=O)(=O)c3ccc(C#N)cc3)ccc2n(CC)c1=O	70
CN[C@@H](C)C(=O)N[C@H](C(=O)N1CCC[C@H]1C(=O)Nc1snnc1-c1ccccc1)C1CCCCC1	60
O=C(NCCN1CCC(n2c(=O)[nH]c3cc(Cl)ccc32)CC1)c1ccc(F)cc1 [HALOPEMIDE]	79
CC[C@@H](C)Nc1nc(C)nc2c(-c3ccc(OC)nc3C)c(C)nn12	76
O=C(CCCc1ccccc1)Nc1nc2ccccc2c(=O)s1	74

Give the measured Population Healthy Nuclei (%) of N#Cc1c(Oc2cccc(OS(=O)(=O)CCCC(F)(F)F)c2)cccc1C(F)(F)F .
76

Give the measured Population Healthy Nuclei (%) of CCCCC1=NC2(CCCC2)C(=O)N1Cc1ccc(-c2ccccc2-c2nnn[nH]2)cc1 .
82

Give the measured Population Healthy Nuclei (%) of Cc1onc(-c2ccccc2Cl)c1C(=O)N(C)c1ccc(Cl)cc1 .
79

Give the measured Population Healthy Nuclei (%) of Cc1c(CC(=O)O)c2cccnc2n1Cc1ccc(S(C)(=O)=O)cc1C(F)(F)F .
72

Give the measured Population Healthy Nuclei (%) of CCCCCC(O)/C=C/[C@H]1C(=O)CC(O)C1C/C=C\CCCC(=O)O (some centres undefined) .
76

Give the measured Population Healthy Nuclei (%) of Cl.NCCc1ccc(O)c(O)c1 [DOPAMINE HYDROCHLORIDE] .
72

Give the measured Population Healthy Nuclei (%) of Cc1noc(-c2ccc(-c3ccc(CC(=O)O)cc3)cc2)c1NC(=O)O[C@H](C)c1ccccc1Cl .
74

Give the measured Population Healthy Nuclei (%) of Cc1cnc(-c2cc(N3CCN(C(=O)CCS(C)(=O)=O)CC3)ncc2Cl)c(C)c1 .
73

Give the measured Population Healthy Nuclei (%) of C[C@H](N)COC(=O)[C@@H](CCCCN)NC(=O)Cc1c(-c2ccc3ccccc3c2)[nH]c2c1ccc1ccccc12 .
78
